target: Human Factor D (Homo sapiens (Human), UniProt P00746); experiment: Human Factor D assay; type: biochemical; details: Human Factor D 80 nM, substrate Z-L-Lys-SBzl, A405; read-out: IC50 (Stars)
Sequence (P00746 26-253): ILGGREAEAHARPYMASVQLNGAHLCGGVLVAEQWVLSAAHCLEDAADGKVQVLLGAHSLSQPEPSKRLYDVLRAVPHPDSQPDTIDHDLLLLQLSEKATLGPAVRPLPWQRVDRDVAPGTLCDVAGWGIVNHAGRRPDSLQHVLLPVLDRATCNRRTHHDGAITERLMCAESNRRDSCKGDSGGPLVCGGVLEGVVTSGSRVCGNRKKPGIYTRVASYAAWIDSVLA
pIC50: −log10 of the molar value.
The entries below come with measured pIC50 values attached.

| molecule | pIC50 |
| --- | --- |
| CC(=O)c1nn2c3c(cc(CC(C)C)cc13)CCCCCCC(=O)NC[C@@]13C[C@@H](C(=O)Nc4nc(C(F)(F)F)ccc4C)N(C(=O)C2)[C@@H]1C3 [Compound 28] | > 6.00 |
| CC(=O)c1nn2c3c(cc(-c4cnc(C)nc4)cc13)CCCCCCCCc1ccc(Br)nc1NC(=O)[C@H](C)N(C)C(=O)C2 [Compound 51] | < 5.00 |

Task: Which measured pIC50 belongs to CC(=O)c1nn2c3c(cc(-c4cnc(C)nc4)cc13)CCCCCCC(=O)NC[C@@]13C[C@@H](C(=O)Nc4nc(Br)ccc4CN4CC(F)C4)N(C(=O)C2)[C@@H]1C3 [Compound 2] , tested on Human Factor D (Homo sapiens (Human), UniProt P00746)?
Result: > 6.00
